Attribution: PubChem BioAssay AID743319

Target: Endoplasmic reticulum aminopeptidase 2 (Homo sapiens) (UniProt Q6P179)
Sequence (Q6P179 whole entry, looked up): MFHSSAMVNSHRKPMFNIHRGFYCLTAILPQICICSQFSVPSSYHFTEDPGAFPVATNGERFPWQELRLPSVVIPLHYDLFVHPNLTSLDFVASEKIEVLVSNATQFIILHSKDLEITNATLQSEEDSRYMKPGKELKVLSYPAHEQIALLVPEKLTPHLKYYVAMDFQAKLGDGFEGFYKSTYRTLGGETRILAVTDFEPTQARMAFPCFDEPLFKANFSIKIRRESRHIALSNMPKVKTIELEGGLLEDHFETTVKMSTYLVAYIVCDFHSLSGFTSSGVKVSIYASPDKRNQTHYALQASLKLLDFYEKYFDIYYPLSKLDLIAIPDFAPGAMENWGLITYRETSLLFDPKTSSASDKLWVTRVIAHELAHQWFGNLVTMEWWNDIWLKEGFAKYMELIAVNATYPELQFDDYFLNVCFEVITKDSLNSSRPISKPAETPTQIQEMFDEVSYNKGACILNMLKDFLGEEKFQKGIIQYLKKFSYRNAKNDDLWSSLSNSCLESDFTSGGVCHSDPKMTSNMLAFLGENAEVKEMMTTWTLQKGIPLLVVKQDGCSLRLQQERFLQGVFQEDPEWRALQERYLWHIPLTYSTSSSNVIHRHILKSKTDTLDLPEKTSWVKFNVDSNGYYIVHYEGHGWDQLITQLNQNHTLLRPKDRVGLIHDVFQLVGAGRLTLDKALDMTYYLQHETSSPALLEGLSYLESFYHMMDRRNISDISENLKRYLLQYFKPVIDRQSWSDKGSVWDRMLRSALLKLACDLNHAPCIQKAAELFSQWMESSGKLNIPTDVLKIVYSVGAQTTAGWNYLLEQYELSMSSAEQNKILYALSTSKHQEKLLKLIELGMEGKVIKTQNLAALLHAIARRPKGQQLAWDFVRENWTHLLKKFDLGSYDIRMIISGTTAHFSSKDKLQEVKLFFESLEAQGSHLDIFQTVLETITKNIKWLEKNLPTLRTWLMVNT
Assay: ERAP2 activation by compounds, dose response, selectivity assay for selective ERAP1 modulator project, biochemical, fluorescence plate reader, cherry-picked samples (AID 743319)
Settings: recombinant ERAP2, Arg-AMC cleavage fluorescence, 1 h

{"compound": "COCC(=O)N1[C@@H]2Cn3c(ccc(/C=C/c4ccccc4)c3=O)[C@H]1[C@@H](C(=O)N1CCOCC1)[C@@H]2CO", "AC200": "1550 nM"}
{"compound": "CCN(CC)c1ccc2c(C)c(Cl)c(=O)oc2c1", "AC200": "1420 nM"}
{"compound": "CCc1c(C)c2cc(Cl)c(O)c(CN(C)C)c2oc1=O", "AC200": "803 nM"}
{"compound": "COc1cccc(CN(C)Cc2cc(=O)oc3cc(O)c(Cl)cc23)c1", "AC200": "1620 nM"}
{"compound": "CN1CCCC1CCNc1ccc2c(=O)c3ccccc3oc2c1 (stereo not given)", "AC200": "1140 nM"}

====

Molecular target: Endoplasmic reticulum aminopeptidase 2 (Homo sapiens) (UniProt Q6P179)
Test: ERAP2 activation by compounds, dose response, selectivity assay for selective ERAP1 modulator project, biochemical, fluorescence plate reader, cherry-picked samples (AID 743319)
Conditions: recombinant ERAP2, Arg-AMC cleavage fluorescence, 1 h

{"compound": "CCc1c(C)c2cc(Cl)c(O)c(CN(CC)CC)c2oc1=O", "target-desc": "Endoplasmic reticulum aminopeptidase 2 (Homo sapiens) (UniProt Q6P179)", "AC200": "1170 nM"}
{"compound": "CCCN1[C@@H]2c3ccc(/C=C/c4ccccc4)c(=O)n3C[C@H]1[C@H](CO)[C@H]2C(=O)NCc1ccccn1", "target-desc": "Endoplasmic reticulum aminopeptidase 2 (Homo sapiens) (UniProt Q6P179)", "AC200": "2190 nM"}
{"compound": "Cc1cc(=O)oc2cc(OCC(=O)N3CCN(C(C)c4ccccc4)CC3)c(Cl)cc12 (stereo not given)", "target-desc": "Endoplasmic reticulum aminopeptidase 2 (Homo sapiens) (UniProt Q6P179)", "AC200": "3960 nM"}
{"compound": "CCN(CC)Cc1c(O)c(Cl)cc2c(C)cc(=O)oc12", "target-desc": "Endoplasmic reticulum aminopeptidase 2 (Homo sapiens) (UniProt Q6P179)", "AC200": "1240 nM"}
{"compound": "CCCN1[C@@H]2Cn3c(ccc(/C=C/c4ccccc4)c3=O)[C@H]1[C@@H](C(=O)NCc1ccccn1)[C@@H]2CO", "target-desc": "Endoplasmic reticulum aminopeptidase 2 (Homo sapiens) (UniProt Q6P179)", "AC200": "2260 nM"}
{"compound": "O=c1ccc2cc(OC3O[C@H](CO)[C@@H](O)[C@H](O)[C@H]3O)c(O)cc2o1 (stereo not given in full)", "target-desc": "Endoplasmic reticulum aminopeptidase 2 (Homo sapiens) (UniProt Q6P179)", "AC200": "857 nM"}
{"compound": "N#Cc1c(N)n(CCNC(=O)c2ccccc2)c2nc3ccccc3nc12", "target-desc": "Endoplasmic reticulum aminopeptidase 2 (Homo sapiens) (UniProt Q6P179)", "AC200": "4630 nM"}
{"compound": "COCCCn1c(C(=O)N2CCOCC2)cc2c(=O)n3ccccc3nc21", "target-desc": "Endoplasmic reticulum aminopeptidase 2 (Homo sapiens) (UniProt Q6P179)", "AC200": "6360 nM"}
{"compound": "COc1ccc(-c2cc3ccc(O)cc3oc2=O)cc1", "target-desc": "Endoplasmic reticulum aminopeptidase 2 (Homo sapiens) (UniProt Q6P179)", "AC200": "775 nM"}
{"compound": "O=C(NCc1ccccn1)[C@@H]1[C@@H](CO)[C@@H]2Cn3c(ccc(/C=C/c4ccccc4)c3=O)[C@H]1N2CC1CC1", "target-desc": "Endoplasmic reticulum aminopeptidase 2 (Homo sapiens) (UniProt Q6P179)", "AC200": "2270 nM"}
